Consider the following compounds; for each one, report its CC50.
# assay.summary: Cytotoxicity to macrophages
# Format: cell-based, mice
# test.parameters: BALB/c, mouse, peritoneal macrophages

Q: I am curious: what CC50 value has been reported for "COc1cccc2c1C(=O)C1=C(C[C@@H](C)O[C@@H]1C)C2=O" ?
Result: > 500 µg/mL

Q: Ok, now C[C@@H]1[C@H](O)[C@@H](C)/C=C/C=C/C=C/C=C/C=C/C=C/C=C/[C@H](O[C@@H]2O[C@H](C)[C@@H](O)[C@H](N)[C@@H]2O)C[C@@H]2O[C@](O)(C[C@@H](O)C[C@@H](O)[C@H](O)CC[C@@H](O)C[C@@H](O)CC(=O)O[C@H]1C)C[C@H](O)[C@H]2C(=O)O [Amphotericin B, reference compound]
Result: > 100 µg/mL
